// values below are reported inhibition
biological target: Muscarinic acetylcholine receptor (Rattus norvegicus) (UniProt P08482+P08483+P08485+P08911+P10980); experiment: Inhibitory effect on muscarinic acetylcholine receptor binding affinity at a concentration of (10e -6)M; type: protein assay
Please respond with the number in % and leave the unit unwritten.

Cc1cccc(C)c1OCC(C)N (centres undefined) [MEXILETINE] : -1
COc1ccc2c(c1)C(NCCN(C(C)C)C(C)C)c1cccnc1CO2 (centres undefined) : 4
COc1ccc2c(c1)C(NCCN)c1cccnc1CO2 (centres undefined) : -1
CCN(CC)CCNC1c2ccc(OC)cc2OCc2ncccc21 (centres undefined) : 14

Sample CCN1CCCC1CNC1c2cc(OC)ccc2OCc2ncccc21 (stereo in doubt; 26) ; inhibition observed: 2

Sample CCN(CC)CCNC1c2cc(OC)ccc2OCc2ncccc21 (centres undefined) ; inhibition observed: -3

* * *

biological target: Muscarinic acetylcholine receptor (Rattus norvegicus) (UniProt P08482+P08483+P08485+P08911+P10980); assay: Inhibitory effect on muscarinic acetylcholine receptor binding affinity at a concentration of (10e -5)M; assay type: protein assay
testReadout: inhibition (%)
Please respond with the number in % and leave the unit unwritten.

Known results for compounds:
CCN(CC)CCNC1c2cc(OC)ccc2OCc2ncccc21 (stereo unspecified) : 8
COc1ccc2c(c1)C(NCCN(C)C)c1cccnc1CO2 (stereo unspecified) : 15
CCN(CC)CCNC1c2cc(OC)c(OC)cc2OCc2ncccc21 (stereo unspecified) : 2

Sample COc1ccc2c(c1)C(NCCN1[C@H](C)CC[C@@H]1C)c1cccnc1CO2 (stereo partly specified) ; inhibition observed: 15

Sample COc1ccc2c(c1)C(NCCN)c1cccnc1CO2 (stereo unspecified) ; inhibition observed: 5

Sample CC(C)N(CCC(C(N)=O)(c1ccccc1)c1ccccn1)C(C)C (stereo unspecified) [DISOPYRAMIDE] ; inhibition observed: 7

Sample COc1ccc2c(c1)C(NCCN1[C@@H](C)CC[C@@H]1C)c1cccnc1CO2 (stereo partly specified) ; inhibition observed: 6

Sample CCN1CCCC1CNC1c2cc(OC)ccc2OCc2ncccc21 (stereo in doubt; 26) ; inhibition observed: 23

Sample COc1ccc2c(c1)C(NCCN(C(C)C)C(C)C)c1cccnc1CO2 (stereo unspecified) ; inhibition observed: 17

Sample COc1ccc2c(c1)C(NCCCNC1CCCCC1)c1cccnc1CO2 (stereo unspecified) ; inhibition observed: -1

Sample CCN(CC)CCCNC1c2cc(OC)ccc2OCc2ncccc21 (stereo unspecified) ; inhibition observed: 24

* * *

target: Muscarinic acetylcholine receptor (Rattus norvegicus) (UniProt P08482+P08483+P08485+P08911+P10980); test: Inhibitory effect on muscarinic acetylcholine receptor binding affinity at a concentration of (10e -5)M; assay type: protein assay
testReadout: inhibition (%)
Please respond with the number in % and leave the unit unwritten.

Sample COc1ccc2c(c1)C(N1CCN(C)CC1)c1cccnc1CO2 (stereo not given) ; inhibition observed: 11

* * *

biological target: Muscarinic acetylcholine receptor (Rattus norvegicus) (UniProt P08482+P08483+P08485+P08911+P10980); test: Inhibitory effect on muscarinic acetylcholine receptor binding affinity at a concentration of (10e -6)M; type: protein assay
testReadout: inhibition (%)
Please respond with the number in % and leave the unit unwritten.

CCN(CC)CC/C=C1/c2ccccc2OCc2ncccc21 : 28

Consider the additional compound presented here.
Sample CC(C)N(CCC(C(N)=O)(c1ccccc1)c1ccccn1)C(C)C (stereo unspecified) [DISOPYRAMIDE] ; inhibition observed: -1

Every entry's value here was drawn from ChEMBL document CHEMBL1125015.
